Task for the reader: assign each of the following compounds its reported RAM network inhibition.
- protocolDescription: RAM signaling pathway blockade in yeast – S. cerevisiae, Pdr1DBD-CYC8 efflux-inhibited sensitized strain, primary screen (AID 1298);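 also: 0% = DMSO untreated cells without growth and 100% = 10 µM 1-NA-PP1 full growth; higher means more yeast growth rescued from 5-FOA killing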
- runParameters: S. cerevisiae cbk1-as DSE1-URA3 strain, 5-FOA growth OD615, 2 d; at 50 µM; hits give high values
The source made the active and inactive calls.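 The calls were made as follows: active = RAM network inhibition above 8.4% in each of two replicates, 3 SD over the compound average; inconclusive = above 8.4% inhibition in only one replicate; inactive = 8.4% inhibition or less in each replicate.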

For every record below, what is its RAM network inhibition?
1. Cn1c(SCC(=O)Nc2ccccc2F)nnc1-c1cccnc1
2. CCOC(=O)N1CCC(c2cc(=O)n3[nH]c(-c4ccccc4)cc3n2)CC1
3. Cn1cnnc1SCC(=O)Nc1ccccc1
4. CC(C)CCN(C)C1CCN(C(=O)Nc2c(F)cccc2F)CC1
5. Cc1ccc(C(=O)NCCCCNC(=O)c2ccc(C)o2)o1
6. Cc1nn(C)c(C)c1S(=O)(=O)N(CC(=O)NCc1ccco1)c1ccc(C(C)C)cc1

1: -1.31% (inactive); 2: 9.15% (inactive); 3: 1.79% (inactive); 4: 0.26% (inactive); 5: 4.03% (inactive); 6: 7.88% (inactive)

Provide RAM network inhibition for all items below, preserving their order.
1. CC(=O)Oc1c2occc2cc2ccc(=O)oc12
2. Cc1ccc(N2C(=O)CC(N3CCN(C4CCc5ccccc5C4)CC3)C2=O)cc1 (stereo not drawn)
3. Cc1cc(C)nc(NS(=O)(=O)c2ccc(NC(=O)CCCN3C(=O)c4ccccc4C3=O)cc2)n1
4. O=C(CCn1c(=O)oc2ccccc21)NCc1ccc2c(c1)OCO2
5. CCN(CCCNC(=O)Cn1ncc2c(=O)oc3ccccc3c21)c1cccc(C)c1
6. COc1ccc(C2C3=C(CC(C)(C)CC3=O)Nc3c2c(=O)[nH]c(=O)n3Cc2ccccc2)cc1 (stereo not drawn)
7. CC1=Nc2ccc(C)cc2N(Cc2ccccc2)C(=O)C1

1: -1.95% (inactive); 2: 6.5% (inactive); 3: 3.72% (inactive); 4: 6.04% (inactive); 5: 3.72% (inactive); 6: 6.38% (inactive); 7: 2.83% (inactive)

Cited source for all entries: PubChem BioAssay
